measurement-target: Voltage-gated potassium channel subunit beta-2 (Rattus norvegicus) (UniProt P62483)
Sequence (P62483 whole entry, looked up): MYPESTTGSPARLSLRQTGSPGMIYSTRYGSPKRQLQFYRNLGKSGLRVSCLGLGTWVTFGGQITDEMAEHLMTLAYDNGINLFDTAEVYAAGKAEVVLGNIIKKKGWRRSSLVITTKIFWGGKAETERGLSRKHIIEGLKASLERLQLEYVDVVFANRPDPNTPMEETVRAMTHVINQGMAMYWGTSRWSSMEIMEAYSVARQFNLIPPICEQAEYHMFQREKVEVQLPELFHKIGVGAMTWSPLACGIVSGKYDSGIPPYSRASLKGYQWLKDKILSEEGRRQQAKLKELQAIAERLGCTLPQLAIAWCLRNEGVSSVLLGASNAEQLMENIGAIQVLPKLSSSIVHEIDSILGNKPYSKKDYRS
assay-overview: inhibitors of rat Kvbeta2 reductase activity – biochemical, NADPH fluorescence, primary screen (AID 622);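 further: slope of raw intensity against log time taken from 70 to 1610 s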
assay-setup: recombinant KvBeta, 4-cyanobenzaldehyde reduction, at 10 µM
Activity calls are given as the source filed them.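 How the source made its calls: active means fluorescence slope higher than the sample average by over 3 SD (cut at about -0.22 in these data, passing the limit was not always enough); inactive means the rest.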
Labels: label 1 for active, label 0 for inactive

# compound, cat
data = [
    ("COC(=O)C1C(=O)c2c([nH]c(C(=O)OCCOC(C)C)c2C)CC1C (stereo not given)", "label 0"),
    ("CCN(CCCNC(=O)C1CCN(S(=O)(=O)c2cccc3nonc23)CC1)Cc1ccccc1", "label 0"),
    ("COc1ccc(-c2cc(C(F)(F)F)n3ncc(C(=O)NCC4CCCO4)c3n2)cc1 (stereo not given)", "label 1"),
    ("COc1ccc(C2c3c(oc4ccccc4c3=O)C(=O)N2Cc2ccncc2)cc1OC (stereo not given)", "label 0"),
    ("C=C(C)c1cccc(C(C)(C)NC(=O)NCC2CCCO2)c1 (stereo not given)", "label 0"),
    ("CN1CCN(C(=O)c2ccc(CS(=O)(=O)c3c(Cl)cccc3Cl)o2)CC1", "label 0"),
    ("COC(=O)c1ccc(C2CC(=O)Nc3cc(OC)c(OC)c(OC)c32)cc1 (stereo not given)", "label 0"),
    ("COCCNC(=O)Cn1cc2c(n1)CCCCC2", "label 0"),
    ("Cc1sc2nc(CN3CCN(S(=O)(=O)c4cccc5nonc45)CC3)[nH]c(=O)c2c1C", "label 0"),
    ("COc1ccc(-n2ncc3c(=O)n(CC(=O)OCc4ccccc4)cnc32)cc1", "label 0"),
]
